# tested target: Kappa-type opioid receptor (Cavia porcellus, UniProt P41144)
# Sequence (P41144 whole entry): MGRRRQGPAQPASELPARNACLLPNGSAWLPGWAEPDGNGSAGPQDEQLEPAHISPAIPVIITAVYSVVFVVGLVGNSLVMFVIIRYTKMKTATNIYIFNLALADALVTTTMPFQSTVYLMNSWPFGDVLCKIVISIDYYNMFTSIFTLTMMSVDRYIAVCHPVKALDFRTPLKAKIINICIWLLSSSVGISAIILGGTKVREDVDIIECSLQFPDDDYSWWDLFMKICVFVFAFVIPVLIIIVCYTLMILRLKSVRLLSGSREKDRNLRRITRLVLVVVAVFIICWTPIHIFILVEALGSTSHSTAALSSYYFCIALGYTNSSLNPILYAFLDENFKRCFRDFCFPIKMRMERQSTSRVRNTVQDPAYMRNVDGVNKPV
property name: Ki
Be sure to follow the number with its unit.

Q: # input compound: NC(=O)c1cccc(C2C[C@H]3CC[C@H](C2)N3CC(=O)C2CCCCC2)c1 (relative stereo; 30a) ; wanted: its Ki
Result: 0.1 nM

Q: // next record Oc1cccc(C2C[C@H]3CC[C@H](C2)N3CC(O)Cc2ccccc2)c1 (relative stereo; 23b)
Result: 20 nM

Q: Another compound to check: O=C1c2ccccc2C(=O)N1CCCCN1[C@@H]2CC[C@@H]1CC(c1cccc(O)c1)C2 (relative stereo; 21b)
Result: 79.4 nM

Q: Next: CCCCCCCN1[C@@H]2CC[C@@H]1CC(c1cccc(O)c1)C2 (relative stereo; 17b)
Result: 25.1 nM

Q: Same question for O=C(CN1[C@@H]2CC[C@@H]1CC(c1cccc(O)c1)C2)C1CCCCC1 (relative stereo; 22a) please.
Result: 0.01 nM

Q: What do we get for NC(=O)c1cccc(C2C[C@H]3CC[C@H](C2)N3Cc2c(F)cccc2F)c1 (relative stereo; 26b) ?
Result: 398 nM

Q: Ok, now NC(=O)c1cccc(C2C[C@H]3CC[C@H](C2)N3CCCCN2C(=O)c3ccccc3C2=O)c1 (relative stereo; 29a)
Result: 3.16 nM

###

# Test system: Liver
# test method notes: Half life in dog liver microsomes
# Assay type: ADME, Canis lupus familiaris, microsome
# condition details: microsomes
Binary call on t1/2: condition met from 10 min upward, condition not met beneath that.

Q: State whether the measured t1/2 reaches 10 min, counting equality as reaching it, for NC(=O)c1cccc(C2C[C@H]3CC[C@H](C2)N3CC(=O)C2CCCCC2)c1 (relative stereo; 30a)
Result: condition met

Q: Also need Oc1cccc(C2C[C@H]3CC[C@H](C2)N3CCCOc2ccccc2)c1 (relative stereo; 19a) , thanks.
Result: condition not met

Q: Further, for CC(C)(C)c1ccc(CN2[C@@H]3CC[C@@H]2CC(c2cccc(O)c2)C3)cc1 (relative stereo; 20b) ?
Result: condition not met

Q: Repeat with NC(=O)c1cccc(C2C[C@H]3CC[C@H](C2)N3CCCCN2C(=O)c3ccccc3C2=O)c1 (relative stereo; 29b)
Result: condition met

Q: // same read-out, input: CCCCCCCN1[C@@H]2CC[C@@H]1CC(c1cccc(C(N)=O)c1)C2 (relative stereo)
Result: condition met

Q: Can you check NC(=O)c1cccc(C2C[C@H]3CC[C@H](C2)N3CCCc2ccccc2)c1 (relative stereo; 24b) next?
Result: condition met

Q: Do the same for CCCCCCCN1[C@@H]2CC[C@@H]1CC(c1cccc(O)c1)C2 (relative stereo; 17b) please
Result: condition not met

Q: Do the same for Oc1cccc(C2C[C@H]3CC[C@H](C2)N3Cc2c(F)cccc2F)c1 (relative stereo; 18b) please
Result: condition met

###

# Test system: Liver
# test method notes: Half life in human liver microsomes
# Format: ADME, microsome
# condition details: microsomes
property name: t1/2 (min)
Return type: number; implicit unit min.

Q: Requested read-out: t1/2. Entry: CC(C)(C)c1ccc(CN2[C@@H]3CC[C@@H]2CC(c2cccc(O)c2)C3)cc1 (relative stereo; 20b)
Result: 67

Q: Also O=C(CN1[C@@H]2CC[C@@H]1CC(c1cccc(O)c1)C2)C1CCCCC1 (relative stereo; 22b) ?
Result: 13

Q: Now the compound CCCCCCCN1[C@@H]2CC[C@@H]1CC(c1cccc(C(N)=O)c1)C2 (relative stereo)
Result: 40

Q: Okay, and Oc1cccc(C2C[C@H]3CC[C@H](C2)N3CC(O)Cc2ccccc2)c1 (relative stereo; 23a) ?
Result: 32

Q: And the next one, CCCCCCCN1[C@@H]2CC[C@@H]1CC(c1cccc(O)c1)C2 (relative stereo; 17b) ?
Result: 2

Q: Quick one: Oc1cccc(C2C[C@H]3CC[C@H](C2)N3Cc2c(F)cccc2F)c1 (relative stereo; 18a)
Result: 29

Q: Input CC(C)(C)c1ccc(CN2[C@@H]3CC[C@@H]2CC(c2cccc(O)c2)C3)cc1 (relative stereo; 20a)
Result: 16

Q: What would you report for Oc1cccc(C2C[C@H]3CC[C@H](C2)N3Cc2c(F)cccc2F)c1 (relative stereo; 18b) ?
Result: 75

Q: For Oc1cccc(C2C[C@H]3CC[C@H](C2)N3CCCc2ccccc2)c1 (relative stereo; 12b) then?
Result: 27

Q: Same again, this time with Oc1cccc(C2C[C@H]3CC[C@H](C2)N3CCCOc2ccccc2)c1 (relative stereo; 19b)
Result: 20

Q: Entry to check: O=C1c2ccccc2C(=O)N1CCCCN1[C@@H]2CC[C@@H]1CC(c1cccc(O)c1)C2 (relative stereo; 21b)
Result: 38

Q: Try this compound next: CCCCCCCN1[C@@H]2CC[C@@H]1CC(c1cccc(O)c1)C2 (relative stereo; 17a)
Result: 10

Q: Field entry: CCCCCCCN1[C@@H]2CC[C@@H]1CC(c1cccc(C(N)=O)c1)C2 (some centres undefined)
Result: 10
